Exercise: state measured EC50 for each of the molecules provided.
target-or-system: P2Y purinoceptor 6 (Homo sapiens, UniProt Q15077)
Sequence (Q15077 whole entry): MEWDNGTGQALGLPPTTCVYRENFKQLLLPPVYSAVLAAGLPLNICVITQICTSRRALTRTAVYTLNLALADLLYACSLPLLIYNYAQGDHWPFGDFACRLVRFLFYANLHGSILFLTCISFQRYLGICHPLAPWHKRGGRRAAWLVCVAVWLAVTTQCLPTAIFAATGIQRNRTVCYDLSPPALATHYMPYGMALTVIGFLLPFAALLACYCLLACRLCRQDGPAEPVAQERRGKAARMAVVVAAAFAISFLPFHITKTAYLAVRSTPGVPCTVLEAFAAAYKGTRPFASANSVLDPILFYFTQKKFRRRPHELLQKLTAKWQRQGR
experiment-description: Agonist activity at human P2Y6 receptor expressed in human 1321N1 cells assessed as stimulation of [3H]inositol phosphate accumulation by liquid scintillation counting
Type: functional, cell-based
Give just the numeric value; nM need not be written.

Exercise: Tell me EC50 reported for C#CCCCO/N=c1/ccn([C@@H]2O[C@H](COP(=O)(O)OP(=O)(O)OP(=O)(O)O)[C@@H](O)[C@H]2O)c(=O)[nH]1
Solution: 3000

Exercise: Tell me EC50 reported for O=c1[nH]/c(=N\OCCCc2ccc3ccccc3c2)ccn1[C@@H]1O[C@H](COP(=O)(O)OP(=O)(O)OP(=O)(O)O)[C@@H](O)[C@H]1O
Solution: 90

Exercise: Tell me EC50 reported for O=c1[nH]/c(=N\OCCCc2cccc([N+](=O)[O-])c2)ccn1[C@@H]1O[C@H](COP(=O)(O)OP(=O)(O)OP(=O)(O)O)[C@@H](O)[C@H]1O
Solution: 9700

Exercise: Tell me EC50 reported for O=c1[nH]/c(=N\OCCCCc2ccccc2)ccn1[C@@H]1O[C@H](COP(=O)(O)OP(=O)(O)OP(=O)(O)O)[C@@H](O)[C@H]1O
Solution: 251

----------
target-or-system: P2Y purinoceptor 6 (Homo sapiens, UniProt Q15077)
experiment-description: Agonist activity at human P2Y6 receptor expressed in human 1321N1 cells assessed as stimulation of [3H]inositol phosphate accumulation by liquid scintillation counting
Assay type: functional, cell-based
Exercise: state measured pEC50 for each of the compounds provided.
# pEC50: negative log10 of molar concentration; output just the value

Exercise: Tell me pEC50 reported for O=c1[nH]/c(=N\OCCCc2ccsc2)ccn1[C@@H]1O[C@H](COP(=O)(O)OP(=O)(O)OP(=O)(O)O)[C@@H](O)[C@H]1O
Solution: 6.79

Exercise: Tell me pEC50 reported for O=c1[nH]/c(=N\OCCCc2ccc(Br)cc2)ccn1[C@@H]1O[C@H](COP(=O)(O)OP(=O)(O)OP(=O)(O)O)[C@@H](O)[C@H]1O
Solution: 6.65

Exercise: Tell me pEC50 reported for O=c1[nH]/c(=N\OCCCc2ccc(I)cc2)ccn1[C@@H]1O[C@H](COP(=O)(O)OP(=O)(O)OP(=O)(O)O)[C@@H](O)[C@H]1O
Solution: 7.05

Exercise: Tell me pEC50 reported for O=C(CCCCCNC(=O)COc1ccc(/C=C/c2ccc3n2[B-](F)(F)[N+]2=C(c4cccs4)C=CC2=C3)cc1)NCCCn1cc(CCNC(=O)COc2ccc(CCCO/N=c3/ccn([C@@H]4O[C@H](COP(=O)(O)OP(=O)(O)OP(=O)(O)O)[C@@H](O)[C@H]4O)c(=O)[nH]3)cc2)nn1
Solution: 7.64
